Tested on: gel-filtered human platelets
Assay: Inhibition of aggregation of gel-filtered human platelets after ADP or thrombin stimulation
Format: cell-based
Details: Platelet, ADP stimulation, read-out: IC50 (μM), ADP-stimulated
outcome-measure: IC50 (µM)
Record the value in µM, omitting the unit from your answer.

Recorded IC50, per entry:
{"compound": "N=C(N)NCCC[C@@H]1NC(=O)N(CC(=O)N[C@@H](CC(=O)O)C(=O)N[C@@H](Cc2ccccc2)C(=O)NCCCCCCCCN)C1=O [Example 3, acetate]", "experimental-system": "gel-filtered human platelets", "IC50 (µM)": 5}
{"compound": "N=C(N)NCCC[C@@H]1NC(=O)N(CC(=O)N[C@@H](CC(=O)O)C(=O)N[C@@H](Cc2ccccc2)C(=O)NCCCCCCN)C1=O [Example 2, acetate]", "experimental-system": "gel-filtered human platelets", "IC50 (µM)": 3}

Shift focus to the following entry.
Look up IC50: N=C(N)NCCC[C@@H]1NC(=O)N(CC(=O)N[C@@H](CC(=O)O)C(=O)N[C@@H](Cc2ccccc2)C(=O)NCCCCN)C1=O [Example 1, acetate]
1.5

###

Molecular target: fibrinogen receptor (glycoprotein IIb/IIIa) (Homo sapiens, UniProt P05106+P08514)
Construct: endogenous in cells; host or cells: gel-filtered human platelets from donor blood, stimulated with ADP (10 µM)
Sequence (P08514 32-887 limits assumed): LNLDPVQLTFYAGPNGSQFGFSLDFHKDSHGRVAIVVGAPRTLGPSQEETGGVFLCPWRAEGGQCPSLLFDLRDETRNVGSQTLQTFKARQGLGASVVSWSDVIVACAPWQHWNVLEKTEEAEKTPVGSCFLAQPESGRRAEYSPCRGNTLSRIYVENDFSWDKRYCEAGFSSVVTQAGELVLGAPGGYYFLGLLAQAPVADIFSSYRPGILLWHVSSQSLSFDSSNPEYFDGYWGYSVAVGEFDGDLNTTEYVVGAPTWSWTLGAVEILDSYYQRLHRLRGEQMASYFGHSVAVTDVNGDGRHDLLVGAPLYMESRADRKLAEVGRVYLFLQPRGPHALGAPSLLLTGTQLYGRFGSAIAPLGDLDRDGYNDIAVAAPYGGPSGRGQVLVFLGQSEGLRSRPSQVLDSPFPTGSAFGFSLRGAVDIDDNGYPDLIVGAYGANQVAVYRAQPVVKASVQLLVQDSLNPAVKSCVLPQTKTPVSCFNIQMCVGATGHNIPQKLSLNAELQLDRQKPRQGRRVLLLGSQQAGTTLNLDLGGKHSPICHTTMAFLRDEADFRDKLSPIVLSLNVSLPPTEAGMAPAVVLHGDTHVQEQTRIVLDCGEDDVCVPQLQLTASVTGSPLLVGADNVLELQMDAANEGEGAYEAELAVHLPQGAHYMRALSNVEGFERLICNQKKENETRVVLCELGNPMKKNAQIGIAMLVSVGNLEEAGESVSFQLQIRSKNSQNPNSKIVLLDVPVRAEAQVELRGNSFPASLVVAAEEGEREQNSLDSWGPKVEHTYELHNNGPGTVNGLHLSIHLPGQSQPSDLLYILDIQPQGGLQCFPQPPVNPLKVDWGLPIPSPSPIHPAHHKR
Sequence (P08514 891-1039 partner limits assumed): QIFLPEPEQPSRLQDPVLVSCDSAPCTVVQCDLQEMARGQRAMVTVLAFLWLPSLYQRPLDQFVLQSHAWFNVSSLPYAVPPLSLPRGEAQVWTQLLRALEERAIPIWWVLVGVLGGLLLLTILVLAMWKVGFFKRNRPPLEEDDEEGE
Sequence (P05106 27-788): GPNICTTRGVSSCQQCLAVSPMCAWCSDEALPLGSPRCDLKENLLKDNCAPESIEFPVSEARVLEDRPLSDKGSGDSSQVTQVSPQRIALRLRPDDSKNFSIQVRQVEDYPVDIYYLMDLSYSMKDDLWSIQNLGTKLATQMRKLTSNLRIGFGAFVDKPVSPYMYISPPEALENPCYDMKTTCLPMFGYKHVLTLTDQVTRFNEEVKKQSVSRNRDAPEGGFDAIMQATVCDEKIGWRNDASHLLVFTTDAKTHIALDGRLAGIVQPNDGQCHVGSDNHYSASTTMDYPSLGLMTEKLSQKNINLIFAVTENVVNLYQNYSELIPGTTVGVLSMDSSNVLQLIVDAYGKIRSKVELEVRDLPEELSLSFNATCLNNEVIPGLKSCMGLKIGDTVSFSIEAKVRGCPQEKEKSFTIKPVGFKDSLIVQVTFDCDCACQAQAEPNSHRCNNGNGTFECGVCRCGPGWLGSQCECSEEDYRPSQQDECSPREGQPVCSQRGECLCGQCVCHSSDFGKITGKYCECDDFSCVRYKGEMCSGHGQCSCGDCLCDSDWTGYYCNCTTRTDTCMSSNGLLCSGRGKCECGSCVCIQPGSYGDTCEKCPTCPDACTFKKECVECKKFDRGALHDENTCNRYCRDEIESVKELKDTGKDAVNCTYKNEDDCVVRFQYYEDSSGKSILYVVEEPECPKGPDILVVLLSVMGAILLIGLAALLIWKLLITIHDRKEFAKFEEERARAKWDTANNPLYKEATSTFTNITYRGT
Experiment: Inhibition of binding of 125I-fibrinogen to its receptor on intact, gel-filtered human platelets
Conditions: inhibition of 125I-fibrinogen binding, stimulation with ADP (10 μM), read-out: Ki (μM), ADP-stimulated
Description: The compounds are tested in particular for their inhibitory action in blood platelet aggregation and the adhesion of fibrinogen to blood platelets. Gel-filtered blood platelets from human donor blood are used, which are activated with ADP or thrombin. The inhibition of the binding of fibrinogen to its receptor (glycoprotein IIb/IIIa) by the compounds according to the invention is tested on intact, gel-filtered human platelets. […]
outcome-measure: Ki (µM)
Give just the numeric value; µM need not be written.

Recorded Ki of N=C(N)NCCC[C@@H]1NC(=O)N(CC(=O)N[C@@H](CC(=O)O)C(=O)N[C@@H](Cc2ccccc2)C(=O)NCCCCCCCCN)C1=O [Example 3, acetate] , please.
3.21

###

Target: fibrinogen receptor (glycoprotein IIb/IIIa) (Homo sapiens, UniProt P05106+P08514)
Construct: endogenous in cells; host or cells: gel-filtered human platelets from donor blood, stimulated with ADP (10 µM)
Assay: Inhibition of binding of 125I-fibrinogen to its receptor on intact, gel-filtered human platelets
Details: inhibition of 125I-fibrinogen binding, stimulation with ADP (10 μM), read-out: Ki (μM), ADP-stimulated
outcome-measure: Ki (µM)
I only need the number, in µM, no unit after it.

{"molecule": "N=C(N)c1ccc(CC2NC(=O)N(CC(=O)N[C@@H](CC(=O)O)C(=O)N[C@@H](CCCCN)C(=O)NCCCCN)C2=O)cc1 (stereo partly shown) [Example 7]", "data-value": 0.17}
{"molecule": "N=C(N)c1ccc(CC2NC(=O)N(CC(=O)N[C@@H](CC(=O)O)C(=O)N[C@@H](Cc3ccccc3)C(=O)NCCCCN)C2=O)cc1 (stereo partly shown) [Example 4]", "data-value": 0.32}
{"molecule": "N=C(N)NCCC[C@@H]1NC(=O)N(CC(=O)N[C@@H](CC(=O)O)C(=O)N[C@@H](Cc2ccccc2)C(=O)NCCCCN)C1=O [Example 1, acetate]", "data-value": 2.5}

What value of Ki on fibrinogen receptor (glycoprotein IIb/IIIa) (Homo sapiens, UniProt P05106+P08514) does N=C(N)NCCC[C@@H]1NC(=O)N(CC(=O)N[C@@H](CC(=O)O)C(=O)N[C@@H](Cc2ccccc2)C(=O)NCCCCCCN)C1=O [Example 2, acetate] have?
2.44
